Experiment: Partition coefficient, octanol-water
Assay type: physicochemical
Conditions: read-out: Partition Coefficient, Octanol-Water, log P
Quantity Measured: logP
One number for each entry.

Inquiry: What does the data say about its logP? Entry: C[C@@H](O)[C@H](NC(=O)[C@@H]1CSSC(C)(C)[C@H](NC(=O)[C@H](N)Cc2ccccc2)C(=O)N[C@@H](Cc2ccccc2)C(=O)N[C@H](Cc2c[nH]c3ccccc23)C(=O)N[C@@H](CCCCN)C(=O)N[C@@H]([C@@H](C)O)C(=O)N1)C(=O)O
Reply text: -0.22

* * *

Experiment: Partition coefficient, octanol-water
Format: physicochemical
Details: read-out: Partition Coefficient, Octanol-Water, log P
I'd be grateful if you could share measured logP for these entries.
One number for each entry.

- Molecule: "C[C@@H](O)[C@H](NC(=O)[C@@H]1CSSC[C@H](NC(=O)[C@H](N)Cc2ccccc2)C(=O)N[C@@H](Cc2ccccc2)C(=O)N[C@H](Cc2c[nH]c3ccccc23)C(=O)N[C@@H](CCCCN)C(=O)N[C@@H]([C@@H](C)O)C(=O)N1)C(=O)O"
  logP: -0.77

As a next step, examine the compound that follows.
Inquiry: What does the data say about its logP? Entry: C[C@@H](O)[C@H](NC(=O)[C@H]1NC(=O)[C@H]([C@@H](C)O)NC(=O)[C@H](CCCCN)NC(=O)[C@@H](Cc2c[nH]c3ccccc23)NC(=O)[C@H](Cc2ccccc2)NC(=O)[C@@H](NC(=O)[C@H](N)Cc2ccccc2)CSSC1(C)C)C(N)=O
Reply text: 0.36
